Ref: patent US12291516B2

- tested-target: BTK (Homo sapiens (Human))
- Sequence (Q06187 whole entry): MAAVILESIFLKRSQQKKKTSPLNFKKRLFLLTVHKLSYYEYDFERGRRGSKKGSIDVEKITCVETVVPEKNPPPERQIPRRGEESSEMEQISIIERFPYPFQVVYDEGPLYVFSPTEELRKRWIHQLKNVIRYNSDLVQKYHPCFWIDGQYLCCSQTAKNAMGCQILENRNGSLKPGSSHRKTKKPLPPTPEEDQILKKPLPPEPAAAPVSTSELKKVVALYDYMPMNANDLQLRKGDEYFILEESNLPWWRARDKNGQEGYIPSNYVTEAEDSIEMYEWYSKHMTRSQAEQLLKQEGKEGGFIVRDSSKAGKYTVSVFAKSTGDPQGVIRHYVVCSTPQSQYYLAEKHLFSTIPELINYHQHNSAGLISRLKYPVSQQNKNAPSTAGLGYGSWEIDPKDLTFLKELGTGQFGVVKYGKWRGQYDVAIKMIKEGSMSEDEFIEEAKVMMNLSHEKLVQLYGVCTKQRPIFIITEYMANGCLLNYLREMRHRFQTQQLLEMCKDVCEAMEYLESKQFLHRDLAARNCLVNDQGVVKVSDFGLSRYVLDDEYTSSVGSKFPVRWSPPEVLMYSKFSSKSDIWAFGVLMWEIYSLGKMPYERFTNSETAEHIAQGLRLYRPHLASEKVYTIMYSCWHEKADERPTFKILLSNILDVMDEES
- procedure-summary: In house ELISA kinase inhibition assay, BTK
- Format: biochemical
- conditions: footnote b: from in house procedure (ELISA)
pIC50: −log10 of the molar value.
measured-metric: pIC50

- compound: "CC#CC(=O)N1CCCC[C@H]1c1nc(-c2ccc(C(=O)Nc3cc(C)c(F)cn3)cc2)c(C(N)=O)n1N [Example 108]"
  tested-target: "BTK (Homo sapiens (Human))"
  pIC50: 6.92

(1) CC#CC(=O)N1CCCC[C@H]1c1nc(-c2ccc(C(=O)Nc3ccc(C)cn3)cc2)c(C(N)=O)n1N [Example 64]
(2) C=CC(=O)N1CCC[C@H]1c1nc(-c2ccc(C(=O)Nc3cc(C)ccn3)cc2)c(C(N)=O)n1N [Example 10]
Ask: Please indicate which entry, 1 or 2 , has the lower recorded pIC50 value. Kindly give the label for the entry you pick.
Result: 1
(1: 6.89, 2: 7.10)
